Test system: klf2 promoter-luciferase construct in A204 cells
Assay method text: klf2 reporter gene induction (p21 versus klf2 selectivity)
Assay type: cell-based
Recorded conditions: 10 micromolar; SNDX-275 p21/klf2 ratio defined as 1.0
Use 2 as the dividing line for p21/klf2 (RP10): relative selectivity compared with SNDX-275, with the line itself on the met side and lower values as not met.

Molecule | Qualitative label
Nc1ccccc1NC(=O)/C=C/c1ccc(C(NCCN2CCSCC2)C(=O)Nc2ccc(C(F)(F)F)cc2)cc1 (centres unmarked) | met
Nc1ccccc1NC(=O)/C=C/c1ccc(C(NCCN2CCCCC2)C(=O)Nc2ccc(C(F)(F)F)cc2F)cc1 (centres unmarked) | met
Nc1ccccc1NC(=O)/C=C/c1ccc(C(NCCN2CCOCC2)C(=O)Nc2ccc(C(F)(F)F)c(Cl)c2)cc1 (centres unmarked) | met
Nc1ccccc1NC(=O)/C=C/c1ccc(C(C(=O)Nc2ccc(C(F)(F)F)cc2)N2CCNCC2)cc1 (centres unmarked) | met
Nc1ccccc1NC(=O)/C=C/c1ccc(C(NCCN2CCOCC2)C(=O)Nc2ccc(C(F)(F)F)c(F)c2)cc1 (centres unmarked) | met
Cc1ccc(NC(=O)C(NCCN2CCOCC2)c2ccc(/C=C/C(=O)Nc3ccccc3N)cc2)cc1 (centres unmarked) | not met
CN(C)C(C(=O)Nc1ccc(C(F)(F)F)cc1)c1ccc(/C=C/C(=O)Nc2ccccc2N)cc1 (centres unmarked) | not met
CN(C)CCNC(C(=O)Nc1ccc(OC(F)(F)F)cc1)c1ccc(/C=C/C(=O)Nc2ccccc2N)cc1 (centres unmarked) | met
Nc1ccccc1NC(=O)/C=C/c1ccc(C(OCCN2CCOCC2)C(=O)Nc2ccc(C(F)(F)F)cc2)cc1 (centres unmarked) | met
CNC(C(=O)Nc1ccc(C(F)(F)F)cc1)c1ccc(/C=C/C(=O)Nc2ccccc2N)cc1 (centres unmarked) | not met
CC(C)(C)c1ccc(NC(=O)C(NCCO)c2ccc(/C=C/C(=O)Nc3ccccc3N)cc2)cc1 (centres unmarked) | not met
Nc1ccccc1NC(=O)/C=C/c1ccc(C(NCCC2CCOCC2)C(=O)Nc2ccc(C(F)(F)F)cc2)cc1 (centres unmarked) | not met
Nc1ccccc1NC(=O)/C=C/c1ccc(C(NCCO)C(=O)Nc2ccc(C(F)(F)F)cc2)cc1 (centres unmarked) | met
Nc1ccccc1NC(=O)/C=C/c1ccc(C(NCCCN2CCOCC2)C(=O)Nc2ccc(C(F)(F)F)cc2)cc1 (centres unmarked) | met
CN(C)CCNC(C(=O)Nc1ccc(Br)cc1)c1ccc(/C=C/C(=O)Nc2ccccc2N)cc1 (centres unmarked) | not met
Nc1ccccc1NC(=O)/C=C/c1ccc(C(NCCN2CCCCC2)C(=O)Nc2ccc(Br)cc2)cc1 (centres unmarked) | not met
N#Cc1ccc(NC(=O)C(NCCN2CCOCC2)c2ccc(/C=C/C(=O)Nc3ccccc3N)cc2)cc1 (centres unmarked) | not met
C[C@@H]1CN(CCNC(C(=O)Nc2ccc(C(F)(F)F)cc2)c2ccc(/C=C/C(=O)Nc3ccccc3N)cc2)C[C@H](C)O1 (some centres unmarked) | not met
Nc1ccccc1NC(=O)/C=C/c1ccc(C(C(=O)Nc2ccc(C(F)(F)F)cc2)N2CCOCC2)cc1 (centres unmarked) | not met
Nc1ccccc1NC(=O)/C=C/c1ccc(C(NCCN2CCCCC2)C(=O)Nc2ccc(OC(F)(F)F)cc2)cc1 (centres unmarked) | not met
Nc1ccccc1NC(=O)/C=C/c1ccc(C(NCCN2CCCCC2)C(=O)Nc2ccc(C(F)(F)F)cc2)cc1 (centres unmarked) | met
CN(C)CCNC(C(=O)Nc1ccc(C(F)(F)F)cc1)c1ccc(/C=C/C(=O)Nc2ccccc2N)cc1 (centres unmarked) | met
Nc1ccccc1NC(=O)/C=C/c1ccc(C(NCCN2CCOCC2)C(=O)Nc2ccc(Cl)cc2)cc1 (centres unmarked) | not met
Nc1ccccc1NC(=O)/C=C/c1ccc(C(NCCN2CCOCC2)C(=O)Nc2ccc(C(F)(F)F)cc2)cc1 (centres unmarked) | met
Nc1ccccc1NC(=O)/C=C/c1ccc(C(C(=O)Nc2ccc(C(F)(F)F)cc2)N2CCCCC2)cc1 (centres unmarked) | not met
Nc1ccccc1NC(=O)/C=C/c1ccc(C(NCCN2CCOCC2)C(=O)Nc2ccc(OC(F)(F)F)cc2)cc1 (centres unmarked) | met
Nc1ccccc1NC(=O)/C=C/c1ccc(C(NCCN2C[C@@H]3C[C@H]2CO3)C(=O)Nc2ccc(C(F)(F)F)cc2)cc1 (some centres unmarked) | not met
Nc1ccccc1NC(=O)/C=C/c1ccc(C(C(=O)Nc2ccc(C(F)(F)F)cc2)N2CCCC2)cc1 (centres unmarked) | met
